Reported pIC50, UniProt P0DTD1.
pIC50: −log10 of the molar value.
Endpoint Name: pIC50

In [3]: df
Out[3]:
                            molecule_smiles     target_desc  endpoint_name  measured_value
0  CN(C)[C@@H](CC1CC1)C(=O)N[C@@H](CC(C)(C)C)C(=O)N1C[C@]2(C[C@H]1C#N)C(=O)Nc1ccccc12  UniProt P0DTD1          pIC50          < 6.00
1  CC(C)C[C@@H](C(=O)N1C[C@]2(C[C@H]1C#N)C(=O)Nc1ccccc12)N(C)C(=O)[C@H](CC1CCC1)NC(=O)OCc1ccccc1  UniProt P0DTD1          pIC50          > 7.00
2  CN(C(=O)[C@H](Cc1ccc(F)cc1)NC(=O)C1CCC1)[C@@H](CC(C)(C)C)C(=O)N1C[C@]2(C[C@H]1C#N)C(=O)Nc1ccccc12  UniProt P0DTD1          pIC50          > 7.00
3  CC(=O)N[C@@H](CC1CC1)C(=O)N(C)[C@@H](CC(C)(C)C)C(=O)N1C[C@]2(C[C@H]1C#N)C(=O)Nc1ccccc12  UniProt P0DTD1          pIC50          > 7.00
4  CC(C)C[C@@H](C(=O)N1C[C@]2(C[C@H]1C#N)C(=O)Nc1ccccc12)N(C)C(=O)[C@@H](NC(=O)C(F)(F)F)c1ccccc1  UniProt P0DTD1          pIC50          > 7.00
5  Cc1cc(C(=O)N[C@@H](Cc2ccc(F)cc2)C(=O)N[C@@H](CC(C)(C)C)C(=O)N2C[C@]3(C[C@H]2C#N)C(=O)Nc2ccccc23)no1  UniProt P0DTD1          pIC50          > 7.00
